Target: human FSH receptor (Homo sapiens, UniProt P23945)
Construct: cotransfected with CRE-luciferase reporter
Sequence (P23945 18-695): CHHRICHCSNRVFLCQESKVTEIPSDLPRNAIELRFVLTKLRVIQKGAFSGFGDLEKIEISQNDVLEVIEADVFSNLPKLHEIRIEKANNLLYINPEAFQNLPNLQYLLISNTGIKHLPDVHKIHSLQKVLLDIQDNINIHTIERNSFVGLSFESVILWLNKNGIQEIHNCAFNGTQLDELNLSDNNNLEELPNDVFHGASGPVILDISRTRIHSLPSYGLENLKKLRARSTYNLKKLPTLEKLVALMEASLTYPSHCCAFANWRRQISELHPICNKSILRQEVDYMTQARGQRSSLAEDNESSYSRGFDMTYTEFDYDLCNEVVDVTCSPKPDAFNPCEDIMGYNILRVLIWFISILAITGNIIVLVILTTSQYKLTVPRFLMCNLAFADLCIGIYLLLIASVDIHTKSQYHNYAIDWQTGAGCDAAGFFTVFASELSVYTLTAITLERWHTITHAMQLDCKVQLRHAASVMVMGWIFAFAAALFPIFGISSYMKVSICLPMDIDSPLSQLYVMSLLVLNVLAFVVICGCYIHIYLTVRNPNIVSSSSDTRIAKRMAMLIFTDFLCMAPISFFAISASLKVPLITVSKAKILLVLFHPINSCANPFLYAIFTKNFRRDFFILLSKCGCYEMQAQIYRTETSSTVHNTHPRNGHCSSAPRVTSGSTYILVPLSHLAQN
Test: Antagonistic activity of compounds at the human FSH receptor expressed in CHO cells (CRE-luciferase reporter)
Details: CHO cells stably transfected with human FSH receptor and CRE/luciferase reporter; together with 49 μM recFSH; 4 hours incubation; 1% DMSO; read-out: IC50 (concentration of test compound causing half-maximal inhibition of the maximally attainable inhibition of the luciferase stimulation)
This section presents molecules with their documented IC50 values.

Consider the reported IC50 for these molecules:
COc1cc2c(cc1-c1cncnc1)-c1cc(C(=O)N[C@@H](CO)Cc3c[nH]c4ccccc34)c(-c3cccc(F)c3)n1CC2 ... < 100 nM
COc1cc2c(cc1OC)-c1cc(C(=O)N[C@@H](CO)Cc3c[nH]c4ccccc34)c(-c3ccc([N+](=O)[O-])cc3)n1CC2 ... 100 to 1000 nM
COc1cc2c(cc1OC)-c1nc(C(=O)N[C@@H](CO)Cc3c[nH]c4ccccc34)c(-c3cccc(F)c3)n1CC2 ... 100 to 1000 nM

The recorded IC50 for entry COc1cc2c(cc1OC(C)C)-c1cc(C(=O)N[C@@H](CO)Cc3c[nH]c4ccccc34)c(-c3ccco3)n1CC2 equals < 100 nM

Given item COc1cccc(-c2c(C(=O)N[C@@H](CO)Cc3c[nH]c4ccccc34)cc3n2CCc2cc(OC)c(OC)cc2-3)c1 , the value recorded as its IC50 is < 100 nM

The molecule listed as COc1cc2c(c(OC)c1OC)CCn1c-2cc(C(=O)N[C@@H](CO)Cc2c[nH]c3ccccc23)c1-c1ccccc1 shows IC50 equal to < 100 nM

COc1cc2c(cc1OC)-c1c(C)c(C(=O)N[C@@H](CO)Cc3c[nH]c4ccccc34)c(-c3ccccc3)n1CC2 yielded IC50 of 100 to 1000 nM
